system: MDA-MB-435 melanoma; test: NCI-60 one-dose screen, 48 h; conditions: 10 µM unless noted
About 83,000 compounds went through this panel and 20% of them were active in at least one assay; those are over-represented in the sample as a whole. Activity calls are given as the source filed them. How the source made its calls: active means growth percent below 10; inactive means the rest.
Your response should consist of one outcome taken from 1 (yes) for active, 0 (no) for inactive

Fill in: this test's call for O=C(CNCCN1CCOCC1)N1c2cccc3cccc(c23)N(C(=O)CNCCN2CCOCC2)C1c1cn(-c2ccccc2)nc1-c1cccc([N+](=O)[O-])c1 is ___ 0 (no)

Could you please tell me the result logged for O=C(CCN1CCCC1)c1ccc([N+](=O)[O-])cc1 in this assay? 0 (no)

Each compound tested received a call. Report the one for CCCCCOc1ccc(/C=N/Nc2cc(C)nc3ccc(Cl)cc23)cc1 . 1 (yes)

Name the outcome recorded for O=C(N/N=C/c1cc2ccccc2n2nnnc12)Nc1ccccc1 in the assay. 0 (no)

Hi, sorry to bother you, what did the test record for O=C(CCN1CCCC1)Nc1ccc2c(NCc3ccccc3)c3ccccc3nc2c1 ? 1 (yes)

Look up the recorded call for COc1ccc(C(=O)NNc2nc(Cl)nc(N3CCN(C(c4ccccc4)c4ccccc4)CC3)n2)cc1 in this test. 0 (no)

Query: recorded result category for O=C1C=CC(=O)N1c1cccc(Cl)c1 in this test 0 (no)

What outcome does the record of this test show for NC(=NCCCOc1ccc(F)cc1)Nc1ccc(I)cc1 ? 0 (no)

In this assay, the call recorded for COc1ccc(/C=C/c2nc(Nc3ccc(S(=O)(=O)Nc4nc(C)cc(C)n4)cc3)c3ccccc3n2)cc1 was what? 0 (no)

In this assay, the call recorded for COc1cc(-c2n/c(=C\c3c(O)[nH]c4ccc(Cl)cc34)cc3c2=Nc2ccccc2-3)ccc1F was what? 0 (no)

GET /call?item= CCCCOc1ccc(/C=N/Nc2cc(C)nc3ccc(Br)cc23)cc1 returns the recorded outcome of this test. 1 (yes)

What is the recorded call for this compound in the test? COc1ccc(/C=C/C(=O)Nc2cc(/C=C\c3cc(OC)c(OC)c(OC)c3)cc(OC)c2OC)cc1OC 1 (yes)

What classification did CCOC(=O)[C@@H](C)C[C@H](Cc1ccccc1)NC(=O)c1csc([C@@H](C[C@H](C(C)C)N(C)C(=O)[C@@H](NC(=O)[C@H]2C[C@H](O[Si](C)(C)C(C)(C)C)CCN2C)C(C)C)OC(C)=O)n1 end up with in this test? 1 (yes)

For NC1=NN=C(N)C1=Cc1cc2ccccc2n2nnnc12 , what call appears in the results of this test? 0 (no)

// return assay outcome for CN(C)CCn1c2ccc(Br)cc2c2nc3ccccc3nc21 0 (no)

Each compound tested received a call. Report the one for Cc1cccc(-c2cn3ccnc3c(-c3ccc4ncn(Cc5ccccc5)c4c3)n2)c1 . 0 (no)

What is the recorded call for this compound in the test? OCc1cnccc1NCCCOc1ccccc1 0 (no)

How did this test come out for N#Cc1c(-c2ccccc2)nc2c(c(-c3ccccc3)nn2-c2ccccc2)c1-c1ccc(O)cc1 ? 0 (no)

Each compound tested received a call. Report the one for CC(=O)c1ccc(NS(=O)(=O)c2cccc(C(=O)Nc3ccc(Br)cc3)c2)cc1 . 0 (no)

I'd appreciate the recorded outcome for CCN(c1ccccc1)S(=O)(=O)c1cc([N+](=O)[O-])ccc1Cl from this test. 0 (no)

Hello, I am checking results. What call was entered for COc1cc(/C=C/c2cc(O)c(C(C)=O)c(O)c2)cc2c1O[C@]1(C)CC[C@@H](O)C(C)(C)[C@H]1C2 ? 0 (no)

For this compound, state the assay outcome: O=C(Nc1ccc(NC(=O)c2cc(=O)[nH]c3ccccc23)cc1)Nc1cccc(Cl)c1 0 (no)

Assay outcome for Cn1cc(-c2nc(-c3c[nH]c4c(Cl)nccc34)cs2)c2cc(F)ccc21 : what was it? 0 (no)

Test call for this compound, please: CCN(CC)CC[n+]1cc2cc(OC)c(OC)cc2c2ccc3cc4c(cc3c21)OCO4 0 (no)

Outcome? COc1cc2c(c(OC)c1OC)-c1ccc(NNC(=S)N(Cc3cccc(C[N+](Cc4cccc(CNC56CC7CC(CC(C7)C5)C6)c4)(Cc4cccc(CNC56CC7CC(CC(C7)C5)C6)c4)Cc4cccc(CN(C(=S)NNc5ccc6c(cc5=O)[C@@H](NC(C)=O)CCc5cc(OC)c(OC)c(OC)c5-6)C56CC7CC(CC(C7)C5)C6)c4)c3)C34CC5CC(CC(C5)C3)C4)c(=O)cc1[C@@H](NC(C)=O)CC2 (some centres not stated) 1 (yes)

Identify the outcome logged in this assay for the compound shown: CCCCCCCC(=O)OCC/C=C/C1OC1C1OC(=O)/C=C\C=C\C(=O)N(C(C)=O)C(=O)/C=C(/C)CCC2OC2C1OC(=O)NC(C)=O (configuration not stated) 0 (no)

Just curious, what result did CN1C(N2CCN(S(=O)(=O)c3ccccc3)CC2)=NS(=O)(=O)c2ccccc21 get here? 0 (no)

Write down the call the test reported for this compound. Item: O=C(Nc1ccccc1)Nc1ccc2cc3ccc(NC(=O)Nc4ccccc4)cc3nc2c1 0 (no)

Per the assay record, what outcome was assigned to N=C1C(c2nc3ccccc3s2)=C(O)CN1c1cc(Cl)cc(Cl)c1 ? 0 (no)

// param item: CCOC(=O)c1ccc2c(c1)ncn2-c1ccc(NC(=O)Nc2cccc(C)c2)cc1 ; yields the recorded call 0 (no)

For this compound, state the assay outcome: CCOc1ccc(Nc2nc(-c3ccc4c(c3)NC(=O)CO4)cs2)cc1 0 (no)

Assay outcome for Cc1ccccc1NS(=O)(=O)c1cccc(C(=O)Nc2ccc(Br)cc2)c1 : what was it? 0 (no)

###

tested on: MDA-MB-231 breast; assay: NCI-60 one-dose screen, 48 h; settings: 10 µM unless noted
This is part of a sample that, as a whole, favours compounds with a hit. Of some 83,000 tested, about 20% had one in any assay. Active and inactive are the calls of the source. Rule for the calls: active = growth percent below 10; inactive = the rest.
Outcomes you can answer with include only these: t for active, f for inactive

Each compound tested received a call. Report the one for Cc1cc(C)c(S(=O)(=O)Oc2ccccc2[N+](=O)[O-])c(C)c1 . f

Record request — test call for Cc1cnc(C(=O)Nc2nc3ccc(S(=O)(=O)Nc4ccc(C5(C(F)(F)F)CC5)cc4)cc3[nH]2)cn1 f

// outcome(item) with item = CC(=O)c1ccc(NS(=O)(=O)c2cccc(C(=O)Nc3ccc(Br)cc3)c2)cc1 f

What classification did O=C(O)c1ccc2c(c1)C(=O)N(Cc1ccccc1)C2=O end up with in this test? f

Recorded test outcome, item Nc1c(C(=O)Nc2ccnc3ccccc23)sc2nc3c(cc12)CN(Cc1ccccc1)CC3 f

Fill in: this test's call for CCCC/C=N/NC(=S)NCc1ccccc1 is ___ f

Which outcome did this test record for the compound N#CC1C(C#N)C2c3ccccc3C=CN2C1C(=O)c1ccc(Br)cc1 (centres undefined) ? f

Given CCNC(=O)Oc1ccc(/C(=C(\C)c2ccccc2)c2ccc(OCCN3CCCCC3)cc2)cc1 , state the outcome it received in this test. f

Status in this test for O=C1c2ccc3c4c(ccc(c24)C(=O)N1CCCNCc1ccccc1F)C(=O)N(CCCNCc1ccccc1F)C3=O ? t

What call does the record list for c1ccc(-c2c(-c3ccccc3)[n+](Cc3ccc4ccccc4c3)c(-c3cccc4ccccc34)n2Cc2ccc3ccccc3c2)cc1 ? t

Which outcome did this test record for the compound CC(C)(C)[Si](C)(C)OC1[C@@H](O[Si](C)(C)C(C)(C)C)[C@@H](CNC(=O)NC(=O)CCl)O[C@H]1n1cnc2c(NC(=O)Nc3ccccc3)ncnc21 (some centres undefined) ? t

Field: outcome | Entry: CCNc1nc2cc(Nc3ccnc4cc(Cl)ccc34)ccc2o1 f

Record request — test call for COc1ccc(-c2[nH][nH]c(=O)c2-c2nc3ccccc3s2)cc1 f

Hi, do you know how O=C(O)c1ccc(NCc2cn(-c3ccc(C(F)(F)F)cc3)nc2-c2ccc(C(=O)O)cc2)cc1 came out in this test? f

// param item: O=[N+]([O-])CC(c1ccccc1)c1c[nH]c2ccccc12 (centres undefined) ; yields the recorded call f

Hey, what did the test say about O=c1[nH]nc(-c2ccccc2)c2sc3ncc(-c4ccc(Br)cc4)n3c12 ? f

What call does the record list for NS(=O)(=O)c1ccc(Cn2c(SCC(=O)N/N=C/c3ccccc3O)nc3ccccc3c2=O)cc1 ? f

Identify the outcome logged in this assay for the compound shown: CC1(C)CC[C@]2(C(=O)O)CC[C@]3(C)C(=CC[C@@H]4[C@@]5(C)Cc6c([nH]c7ccccc67)C(C)(C)[C@@H]5CC[C@]43C)[C@@H]2C1 f

Short answer needed: outcome of this test for O=C1Nc2cc(Cl)ccc2/C1=C\c1c(-c2ccc(F)cc2)nc2ccccn12 ? f

###

System: MDA-MB-435 melanoma
Assay: NCI-60 one-dose screen, 48 h (100 = growth as untreated, 0 = no growth, -100 = all killed)
Conditions: 10 µM unless noted
Protocol: Growth inhibition of the MDA-MB-435 human Melanoma tumor cell line is measured as a screen for anti-cancer activity. Cells are grown in 96 well plates and exposed to the test compound for 48 hours. Compounds are tested at a single concentration, which is 10^-5 M for most compounds. The reported endpoint is percent growth (GI% or GIPRCNT), where numbers from 0 - 100% represent growth inhibition, and numbers from -100% - 0 represent cell death. […]
About 83,000 compounds went through this panel and 20% of them were active in at least one assay; those are over-represented in the sample as a whole.
Lab note: compare growth with 40%, writing Y if less and N if equal or more.

Hello, I'm reviewing records and need to know if growth of OCc1cnc2ccccc2c1NC1CCCCCC1 is below 40%. Could you check? N

Quick check: does Cn1cc(-c2csc(-c3c[nH]c4ccccc34)n2)c2ccnc(Cl)c21 have growth under 40%? N

Hi there! Is growth for C/C(=N\NC(=O)CSc1nc2ccccc2c(=O)n1Cc1ccc(S(N)(=O)=O)cc1)c1ccc(F)cc1 below 40%, do you know? N

Dear colleague, could you confirm whether growth of COc1cc2c(-c3cc4c(cc3CNCCc3ccc5c(c3)OCO5)OCO4)cccc2c(OC)c1O falls below 40%? Thanks. N

Is the reported growth for CCC(CC)NCC(C)(C)O strictly below 40%? N

Strictly below 40% in growth? Nc1nc(Nc2ccccc2SSc2ccccc2Nc2nc(N)nc(-c3cccs3)n2)nc(-c2ccsc2)n1 N

# strict comparison: is reported growth < 40%? input = CC(=O)[C@@H]1CC[C@]2(C(N)=O)CC[C@]3(C)[C@H](CC[C@@H]4[C@@]5(C)CCCNC(C)(C)[C@@H]5CC[C@]43C)[C@@H]12 N

Determine if CNC(=O)c1cccc(Cn2nc(C)c(NC(=O)c3ccc(COc4ccc(C(F)(F)F)cc4C)cc3)c2C)c1 shows growth strictly lower than 40%. Y

Here's an entry: N#CC1=C(N)Oc2c(ccc3ccccc23)C1c1ccccc1Cl (stereo not drawn) . Is its growth below 40%? Y

Dear colleague, could you confirm whether growth of CCOC(=O)C1=C(CCl)NC(=O)NC1c1ccc2c(c1)OCO2 (stereo not drawn) falls below 40%? Thanks. Y

API: query returns whether the compound falls strictly under 40% in growth. Query: CCCCCN1C=C/C(=C\C(=O)N(C)c2ccc(Oc3ccccc3)cc2)c2ccccc21 N

Here's an entry: COc1cc2c(c(O)c1Br)C(=O)c1c(O)cc(C[C@H](C)O)cc1[C@H]2[C@H]1c2cc(C[C@H](C)O)cc(O)c2C(=O)c2c1cc(OC)c(Br)c2O . Is its growth below 40%? Y

Check if growth falls below 40% for Cc1ccc(NC(C(=O)c2ccccc2)c2ccccc2)cc1 (stereo not drawn) . Y

# TODO verify growth < 40% strictly for this compound: Cn1ccnc1C(=O)/C=C/c1ccc(CC(=O)NC2CCCCC2)cc1 N

Answer whether the compound COc1c(Cl)c2c(c(OC)c1OC)-c1ccc(SC)c(=O)cc1[C@@H](NC(=O)OCC(F)(F)F)CC2 has growth strictly less than 40% Y

growth strictly < 40% for this compound? CC1(C)NCCC[C@]2(C)[C@H]3CC[C@@H]4[C@H]5[C@H](C(=O)/C=C/c6ccco6)CC[C@]5(CO)CC[C@@]4(C)[C@]3(C)CC[C@@H]12 N

Given the entry COc1cc(C(=O)Nc2cc3c(cc2Oc2cc(C)cc(C)c2)C(=O)N(C)[C@@H](CC(=O)N(C)O)C(=O)N3)c(Br)c(OC)c1OC , would its reported growth be below 40%? Y

Answer whether the compound CC1=CCC(OC(=O)C(C)(O)CCC(O)(C(=O)OC2(C)C=CC(O)(C(C)C)CC2)C(C)C)(C(C)C)CC1 (stereo not drawn) has growth strictly less than 40% N
